Exercise: for every item that follows, state its recorded CC50 at 72 h.
assay: in vitro; assay type: cell-based; settings: human, HepG2 hepatocellular carcinoma cells
Numbered stars: 1 amine (or outer) side, 2 acyl side, 3 side chain; on linkers, the order of the positions; unused ones are H or OH. Square brackets hold non-standard residues; d marks the D form. Peptide text beside a SMILES is read from it. * marks the point of attachment. N(1S-cyclohexylethyl)Gly = C[C@H](NCC(=O)O)C1CCCCC1; N(tridecyl)Gly = CCCCCCCCCCCCCNCC(=O)O; X1 = CC(c1ccccc1)N(CC(=O)[*:2])[*:1]; Gly(N-2-aminoethyl) = NCCNCC(=O)O; Myristoyl = CCCCCCCCCCCCCC(=O)*; NFurfurylGly = O=C(O)CNCc1ccco1; Gly(N(CH2)3NH2) = NCCCNCC(=O)O; Nphe = O=C(O)CNCc1ccccc1; NPrGly = CCCNCC(=O)O; Nlys = NCCCCNCC(=O)O
Write the value in µg/mL as a bare number.

Prompt line: // query CC50 at 72 h value for entry CCCCCCCCCCCCCNCC(=O)N(CCN)CC(=O)N(CC(=O)N(CCCCN)CC(=O)N(CC(=O)N(CC(=O)N(CCCN)CC(N)=O)Cc1ccccc1)Cc1ccco1)[C@@H](C)C1CCCCC1 [Compound 911-M13] (H-[N(tridecyl)Gly][Gly(N-2-aminoethyl)][N(1S-cyclohexylethyl)Gly][Nlys][NFurfurylGly][Nphe][Gly(N(CH2)3NH2)]-NH2)
Response line: 140

Prompt line: // query CC50 at 72 h value for entry CCCCCCCCCCCCCC(=O)NCC(=O)N(CCC)CC(=O)N(CC(=O)N(CCCCN)CC(=O)N(CC(=O)N(CC(=O)N(CCCN)CC(N)=O)Cc1ccccc1)Cc1ccco1)C(C)c1ccccc1 (centres unmarked) [Compound 911-M1] (Myristoyl-G[NPrGly][X1][Nlys][NFurfurylGly][Nphe][Gly(N(CH2)3NH2)]-NH2)
Response line: 144

====

experiment: in vitro; format: cell-based; details: human, HepG2 hepatocellular carcinoma cells
Numbered stars: 1 amine (or outer) side, 2 acyl side, 3 side chain; on linkers, the order of the positions; unused ones are H or OH. Square brackets hold non-standard residues; d marks the D form. Peptide text beside a SMILES is read from it. * marks the point of attachment. N(4-Br-benzyl)Gly = O=C(O)CNCc1ccc(Br)cc1; N(tridecyl)Gly = CCCCCCCCCCCCCNCC(=O)O; N(4-F-Bzl)Gly = O=C(O)CNCc1ccc(F)cc1; X1 = CC(c1ccccc1)N(CC(=O)[*:2])[*:1]; Myristoyl = CCCCCCCCCCCCCC(=O)*; NFurfurylGly = O=C(O)CNCc1ccco1; Gly(N(CH2)3NH2) = NCCCNCC(=O)O; Nphe = O=C(O)CNCc1ccccc1; NPrGly = CCCNCC(=O)O; Nlys = NCCCCNCC(=O)O; Sar = CNCC(=O)O
measurement-type: CC50 at 72 h (µg/mL)
Write the value in µg/mL as a bare number.

Prompt line: // query CC50 at 72 h value for entry CCCCCCCCCCCCCNCC(=O)N(C)CC(=O)N(CC(=O)N(CCCCN)CC(=O)N(CC(=O)N(CC(=O)N(CCCN)CC(N)=O)Cc1ccccc1)Cc1ccco1)C(C)c1ccccc1 (stereo not shown) [SAR 2] (H-[N(tridecyl)Gly][Sar][X1][Nlys][NFurfurylGly][Nphe][Gly(N(CH2)3NH2)]-NH2)
Response line: 83.9

Prompt line: // query CC50 at 72 h value for entry CCCCCCCCCCCCCNCC(=O)N(CCC)CC(=O)N(CC(=O)N(CCCCN)CC(=O)N(CC(=O)N(CC(=O)N(CCCN)CC(N)=O)Cc1ccccc1)Cc1ccco1)Cc1ccc(F)cc1 [Compound 911-M4] (H-[N(tridecyl)Gly][NPrGly][N(4-F-Bzl)Gly][Nlys][NFurfurylGly][Nphe][Gly(N(CH2)3NH2)]-NH2)
Response line: 120

Prompt line: // query CC50 at 72 h value for entry CCCCCCCCCCCCCC(=O)NCC(=O)N(CCC)CC(=O)N(CC(=O)N(CCCCN)CC(=O)N(CC(=O)N(CC(=O)N(CCCN)CC(N)=O)C(C)c1ccccc1)Cc1ccco1)C(C)c1ccccc1 (stereo not shown) [Compound 911-M22] (Myristoyl-G[NPrGly][X1][Nlys][NFurfurylGly][X1][Gly(N(CH2)3NH2)]-NH2)
Response line: 113

Prompt line: // query CC50 at 72 h value for entry CCCCCCCCCCCCCNCC(=O)N(CCC)CC(=O)N(CC(=O)N(CCCCN)CC(=O)N(CC(=O)N(CC(=O)N(CCCN)CC(N)=O)Cc1ccccc1)Cc1ccco1)Cc1ccc(Br)cc1 [Compound 911-M6] (H-[N(tridecyl)Gly][NPrGly][N(4-Br-benzyl)Gly][Nlys][NFurfurylGly][Nphe][Gly(N(CH2)3NH2)]-NH2)
Response line: 108

Prompt line: // query CC50 at 72 h value for entry CCCCCCCCCCCCCC(=O)NCC(=O)N(CCC)CC(=O)N(CC(=O)N(CCCCN)CC(=O)N(CC(=O)N(CC(=O)N(CCCN)CC(N)=O)Cc1ccco1)Cc1ccco1)C(C)c1ccccc1 (stereo not shown) [Compound 911-M18] (Myristoyl-G[NPrGly][X1][Nlys][NFurfurylGly][NFurfurylGly][Gly(N(CH2)3NH2)]-NH2)
Response line: 152

Prompt line: // query CC50 at 72 h value for entry CCCCCCCCCCCCCNCC(=O)N(CCC)CC(=O)N(CC(=O)N(C)CC(=O)N(CC(=O)N(CC(=O)N(CCCN)CC(N)=O)Cc1ccccc1)Cc1ccco1)C(C)c1ccccc1 (stereo not shown) [SAR 4] (H-[N(tridecyl)Gly][NPrGly][X1][Sar][NFurfurylGly][Nphe][Gly(N(CH2)3NH2)]-NH2)
Response line: 61.8
